# measured target: T1, SNTG1, Q9NSN8
# T1 sequence (Q9NSN8 52-150, limits assumed, looked up): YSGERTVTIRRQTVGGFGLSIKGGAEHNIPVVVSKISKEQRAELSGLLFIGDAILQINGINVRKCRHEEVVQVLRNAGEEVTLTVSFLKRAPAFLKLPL
# experiment summary: holdup assay
# Set-up: key: below the threshold = too weak to quantify, mostly under pKd 3.1 to 4
# details: plain residues with an end cap or a label only (N-terminal biotin on a linker: ado-ado)
measured attribute: pKd
Just the number, please, no unit attached.

Take a look at these entries with their results.
> print(dat)
                         binder  measured.number
1  DDASLPVSDV [PLEKHA1, Q9HB21]             5.09
2  GIKKITSTAL [RPS6KA3, P51812]             3.68
3    DPAESMESLV [PTPRG, P23470]             4.66
4  PTPDLPQTRV [KLHDC7A, Q5VTJ3]             4.36
5  SVTSERETNI [SLC16A7, O60669]             4.61

Ask: Determine from records and report pKd for SPDRDRESIV [SCN5A, Q14524]
Reply: 4.72

Ask: Determine from records and report pKd for ARGPPRESEV [FAM110D, Q8TAY7]
Reply: 5.23

Ask: Determine from records and report pKd for ELSATVTTDC [TRIP6, Q15654]
Reply: 3.48

Ask: Determine from records and report pKd for NIAESLESLV [PTPRZ1, P23471]
Reply: 4.94
